Source: patent US20190225650A1

Target: flag-tagged HIF1α (AA 786-826) / His6-tagged p300 (AA 323-423) complex (Homo sapiens)
Construct: His6-tagged p300 (AA 323-423); made in house; host or cells: E. coli (pETDuet vector)
Experiment: HIF1α p300 displacement assay (TR FRET, +CHAPS)
Assay type: binding
Conditions: read-out: IC50 (nM) (HIF1α_p300 Displacement + CHAPS)
Bridge positions count the residues as written; N and C are the ends. Square brackets hold non-standard residues; d marks the D form. Peptide text beside a SMILES is read from it. S5 = C=CCCC[C@](C)(N)C(=O)O; Nle = CCCC[C@H](N)C(=O)O
Endpoint label: IC50

Molecule	IC50
CCCC[C@H](NC(=O)[C@H](CCC(=O)O)NC(=O)[C@@H](NC(=O)[C@@H](NC(=O)[C@H](CO)NC(=O)[C@]1(C)CCCC=CCCC[C@](C)(NC(=O)[C@H](CCC(=O)O)NC(=O)[C@H](CC(=O)O)NC(=O)[C@@H](NC(=O)[C@H](Cc2ccccc2)NC(C)=O)[C@@H](C)CC)C(=O)N[C@@H](C(C)C)C(=O)N[C@@H](CC(C)C)C(=O)N[C@@H](CCCC)C(=O)N1)C(C)C)[C@@H](C)CC)C(=O)N[C@@H](C)C(=O)N[C@@H](CC(C)C)C(N)=O [SP-144] (Ac-FIDE[S5]VL[Nle][S5]SVIE[Nle]AL-NH2; staple 5-9)	400 to 700 nM

Prompt: What value of IC50 has been reported for the following molecule? CC[C@H](C)[C@H](NC(=O)[C@H](C)NC(C)=O)C(=O)N[C@@H](CC(=O)O)C(=O)N[C@@H](CCC(=O)O)C(=O)N[C@@H](CCC(=O)O)C(=O)N[C@H](C(=O)N[C@@H](CC(C)C)C(=O)N[C@@H](CCSC)C(=O)N[C@@]1(C)CCCC=CCCC[C@@](C)(C(=O)N[C@@H](CCSC)C(=O)N[C@@H](C)C(=O)N[C@@H](CC(C)C)C(N)=O)NC(=O)[C@H]([C@@H](C)CC)NC(=O)[C@H](C(C)C)NC(=O)[C@H](CC(C)C)NC1=O)C(C)C [SP-217] (Ac-AIDEEVLM[S5]LVI[S5]MAL-NH2; staple 9-13)
Completion: > 700 nM

* * *

Hi there, I'd appreciate the recorded EC50 for every entry that follows.
Test system: HRE-bla ME-180 cells
Assay: Reporter gene assay (HRE-bla ME-180 HIF reporter, GeneBLAzer)
Format: cell-based, human
Settings: 24 hour normoxia
Bridge positions count the residues as written; N and C are the ends. Square brackets hold non-standard residues; d marks the D form. Peptide text beside a SMILES is read from it. R8 = C=CCCCCCC[C@@](C)(N)C(=O)O; S5 = C=CCCC[C@](C)(N)C(=O)O; Nle = CCCC[C@H](N)C(=O)O

Compound	Result
CCCC[C@H](NC(=O)[C@H](CCC(=O)O)NC(=O)[C@@H](NC(=O)[C@@H](NC(=O)[C@H](CC(C)C)NC(=O)[C@]1(C)CCCC=CCCC[C@](C)(NC(=O)[C@H](CCC(=O)O)NC(=O)[C@H](CC(=O)O)NC(=O)[C@@H](NC(=O)[C@H](Cc2ccccc2)NC(C)=O)[C@@H](C)CC)C(=O)N[C@@H](C(C)C)C(=O)N[C@@H](CC(C)C)C(=O)N[C@@H](C)C(=O)N1)C(C)C)[C@@H](C)CC)C(=O)N[C@@H](C)C(=O)N[C@@H](CC(C)C)C(N)=O [SP-152] (Ac-FIDE[S5]VLA[S5]LVIE[Nle]AL-NH2; staple 5-9)	> 30 µM

Could you now look at the following compound, please?
Prompt: Kindly state the measured EC50 obtained for CCCC[C@H](NC(=O)[C@H](C)NC(=O)[C@]1(C)CCCC=CCCCCCC[C@@](C)(NC(=O)[C@H](CCC(=O)O)NC(=O)[C@H](CC(=O)O)NC(=O)[C@@H](NC(=O)[C@H](Cc2ccccc2)NC(C)=O)[C@@H](C)CC)C(=O)N[C@@H](C(C)C)C(=O)N[C@@H](CC(C)C)C(=O)N[C@@H](CCCC)C(=O)N[C@@H](CO)C(=O)N[C@@H](CC(C)C)C(=O)N[C@@H](C(C)C)C(=O)N1)C(=O)N[C@@H](C)C(=O)N[C@@H](CC(C)C)C(N)=O [SP-196] (Ac-FIDE[R8]VL[Nle]SLV[S5]A[Nle]AL-NH2; staple 5-12) with HRE-bla ME-180 cells.
Completion: ≤ 5 µM
